Every entry's value here was drawn from patent US20250011777A1.

- Tested on: HeLa 654 cells (EGFP gene interrupted by a mutated intron of ß-globin, IVS2-654)
- method: EGFP 654 assay (corrective splicing by PMO IVS2-654, flow cytometry)
- Assay type: cell-based
- study-conditions: PMO-CPP conjugates, 22 h, read-out: EC50 in concentration-response EGFP assay

{"macromolecule-sequence": "RXRRBRRXRRBR [BPEP]", "EC50": "~3000 nM"}
